Species on record: Rattus norvegicus
Experiment: animal or person
Settings: Sprague-Dawley, ip, read-out: MED
Description: Antipsychotic activity in ip dosed Sprague-Dawley rat assessed as reduction in PCP-induced hyper-locomotion pretreated for 60 mins followed by PCP addition measured for 30 mins starting 15 min after rat reintroduction to auto-tracks
quantity-name: minimal effective dose

Q: I have this compound here, CN1CCN(C2=Nc3cc(Cl)ccc3Nc3ccccc32)CC1 , and I need its recorded minimal effective dose.
A: 1 mg/kg

Q: What would you report for O=C1Cc2cc(CCN3CCN(c4nsc5ccccc45)CC3)c(Cl)cc2N1 ?
A: 1 mg/kg

Q: What would you report for O=C(CCCN1CCC(O)(c2ccc(Cl)cc2)CC1)c1ccc(F)cc1 ?
A: 0.6 mg/kg

Q: What would you report for O=S(=O)(c1cncc2ccccc12)N1CCC[C@H]1CCN1CCN(c2nsc3ccccc23)CC1 ?
A: 1 mg/kg

Q: What would you report for Cc1cc2c(s1)Nc1ccccc1N=C2N1CCN(C)CC1 ?
A: 1.88 mg/kg

Q: What would you report for O=S(=O)(c1cncc2ccccc12)N1CCC[C@H]1CCN1CCN(c2cccc3sccc23)CC1 ?
A: 1 mg/kg

---

Assay: Cmax in Wistar rat plasma at 9 mg/kg per os administered as a single dose by LC-MS/MS analysis
Assay type: ADME, organism-based
Set-up: dose 9 mg/kg
Conditions: po
quantity-name: Cmax (nM)
A number alone suffices; assume nM.

Q: I have this molecule here, O=S(=O)(c1cncc2ccccc12)N1CCC[C@H]1CCN1CCN(c2cccc3sccc23)CC1 , and I need its recorded Cmax.
A: 54

---

Test: Drug level in Wistar rat plasma at 3 mg/kg, ip measured after 60 mins by LC-MS/MS analysis
Assay type: ADME, organism-based
Note to self: use TRUE only for concentration at 1 h readings below 0.1 µM; a reading exactly at 0.1 µM still gets FALSE.

Q: Check if concentration at 1 h falls below 0.1 µM for O=S(=O)(c1cncc2ccccc12)N1CCC[C@@H]1CCN1CCN(c2cccc3sccc23)CC1 .
A: TRUE

Q: What would you report for O=S(=O)(c1cncc2ccccc12)N1CCC[C@H]1CCN1CCN(c2nsc3ccccc23)CC1 ?
A: TRUE

Q: What would you report for O=S(=O)(c1cncc2ccccc12)N1CCC[C@H]1CCN1CCN(c2cccc3sccc23)CC1 ?
A: TRUE

Q: What would you report for O=S(=O)(c1cccc2cnccc12)N1CCC[C@@H]1CCN1CCN(c2nsc3ccccc23)CC1 ?
A: TRUE

Q: What would you report for O=S(=O)(c1cccc2cnccc12)N1CCC[C@H]1CCN1CCN(c2nsc3ccccc23)CC1 ?
A: FALSE

Q: What would you report for O=S(=O)(c1cncc2ccccc12)N1CCC[C@@H]1CCN1CCN(c2nsc3ccccc23)CC1 ?
A: FALSE

---

Test: Drug level in Wistar rat plasma at 3 mg/kg, ip measured after 30 mins by LC-MS/MS analysis
Format: ADME, organism-based
quantity-name: concentration at 0.5 h

Known concentration at 0.5 h results, listed for orientation:
smiles_str=O=S(=O)(c1cncc2ccccc12)N1CCC[C@@H]1CCN1CCN(c2cccc3sccc23)CC1 result="518 nM"
smiles_str=O=S(=O)(c1cncc2ccccc12)N1CCC[C@H]1CCN1CCN(c2cccc3sccc23)CC1 result="105 nM"
smiles_str=O=S(=O)(c1cncc2ccccc12)N1CCC[C@@H]1CCN1CCN(c2nsc3ccccc23)CC1 result="376 nM"
smiles_str=O=S(=O)(c1cccc2cnccc12)N1CCC[C@@H]1CCN1CCN(c2nsc3ccccc23)CC1 result="389 nM"
smiles_str=O=S(=O)(c1cncc2ccccc12)N1CCC[C@H]1CCN1CCN(c2nsc3ccccc23)CC1 result="177 nM"

Q: I have this molecule here, O=S(=O)(c1cccc2cnccc12)N1CCC[C@H]1CCN1CCN(c2nsc3ccccc23)CC1 , and I need its recorded concentration at 0.5 h.
A: 417 nM

Reference for the values: ChEMBL document CHEMBL4229332
